B1: NEK8 (parent)
chain: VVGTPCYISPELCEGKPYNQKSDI

# Variants of: B1
# Experiment summary: protein stability index of a GFP-peptide fusion (GPS, HEK-293T) (PSI 1-6); higher = more stable;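 note: lentivirally expressed fusions sorted by FACS into six bins by GFP to DsRed ratio, PSI derived from sequencing read proportions per bin multiplied by bin number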
# Condition info: c terminus: a fixed tail appended

Mutation label | protein stability index
V2H | 3.68
P17I | 2.39
V1K | 4.06
K16N | 3.13
N19C | 2.46
T4W | 2.13
G3E | 2.7
S22T | 2.95
P17E | 3.09
P10Q | 3.49
C13H | 2.92
S9V | 2.31
V2F | 3.12
P5W | 1.66
Q20D | 2.54
G3K | 2.9
C6A | 2.81
T4E | 4.08
K21Q | 2.92
T4Q | 4.19
N19D | 3.22
D23A | 2.74
I24K | 3.63
G15P | 2.56
T4N | 3.87
Y18S | 3.86
I8K | 4.14
L12E | 4.11
N19F | 2.14
E14N | 2.52
N19R | 2.45
I8N | 4.4
S22W | 1.26
Q20I | 2.24
S9M | 2.4
C6P | 3.38
N19G | 2.48
Q20C | 2.57
V2E | 4.59
K16I | 2.02
T4H | 3.02
I8D | 4.18
Q20H | 2.59
Y7I | 4.08
D23I | 2.19
G3M | 1.84

All values here come from the supplement of paper PMC10567573.
